The measurements presented in this section are drawn from ChEMBL document CHEMBL3988442.

- Test system: Wolbachia pipientis
- test_protocol: Anti-Wolbachia Cell-Based Screen
- Format: functional
- Design: scale not given: in the data most compounds retested in dose-response had high values
- applied_conditions: 5 µM
Hit rate of the full screen: of about 48,000 compounds, about 13,000 (27%) showed an effect of 50% or more. The list shows a part of the results.

>  <compound>
COc1cccc(CC2(C(=O)O)CCN(c3ccc(Cl)cn3)CC2)c1

>  <Percent Effect (%)>
-33.64

$$$$
>  <compound>
CCC(C(=O)NC1(C(N)=O)CCCC1)n1cccn1 (centres undefined)

>  <Percent Effect (%)>
-7.452

$$$$
>  <compound>
CN(CCO)Cc1cc(=O)n2cc(Br)ccc2n1

>  <Percent Effect (%)>
0.309

$$$$
>  <compound>
Cc1nn(C)c(C)c1CCC(=O)Nc1nnc(C2CC2)s1

>  <Percent Effect (%)>
27.73

$$$$
>  <compound>
Cc1cc(C)n(CC(C)NCc2cnc3c(C)cccn23)n1 (centres undefined)

>  <Percent Effect (%)>
-11.8

$$$$
>  <compound>
OC(CN(Cc1ccccc1)Cc1cscn1)c1cccs1 (centres undefined)

>  <Percent Effect (%)>
-27.1

$$$$
>  <compound>
CS(=O)(=O)NC[C@]12COC[C@H]1CN(Cc1ccc3c(c1)OCO3)C2.O=C(O)C(F)(F)F

>  <Percent Effect (%)>
100.7

$$$$
>  <compound>
CC1CCC(NS(=O)(=O)CC(=O)Nc2ccc(N3CCCC3)cn2)CC1 (centres undefined)

>  <Percent Effect (%)>
-1.172

$$$$
>  <compound>
O=c1cc(CN(CCO)C2CC2)nc2ccc(Br)cn12

>  <Percent Effect (%)>
3.193

$$$$
>  <compound>
Cc1ccc(NC(=O)CS(=O)(=O)NC2CCC(C)CC2)nc1 (centres undefined)

>  <Percent Effect (%)>
0.19

$$$$
>  <compound>
CNC(=O)CS(=O)(=O)C1CCN(S(=O)(=O)C2CC2)CC1

>  <Percent Effect (%)>
-8.784

$$$$
>  <compound>
COC(=O)c1ccc(Cl)c(CN(C)Cc2ncnn2C)c1

>  <Percent Effect (%)>
-12.36

$$$$
>  <compound>
CC1c2ncc(Cn3cncn3)n2CCN1C1CCOCC1.O=C(O)C(F)(F)F (centres undefined)

>  <Percent Effect (%)>
-16.95

$$$$
>  <compound>
CC(=O)NC1CCN(c2cc(C3CCNCC3)nc(C)n2)C1 (centres undefined)

>  <Percent Effect (%)>
-6.629

$$$$
>  <compound>
CC(C)(C)SCC(=O)NC(C)(C(N)=O)c1cccc(Cl)c1 (centres undefined)

>  <Percent Effect (%)>
113.7

$$$$
>  <compound>
CC1CCN(CCNC(=O)C2CCN(S(N)(=O)=O)CC2)CC1

>  <Percent Effect (%)>
-8.736

$$$$
>  <compound>
O=C(NC1CC1)c1cc(Cl)ccc1-n1cnnn1

>  <Percent Effect (%)>
2.892

$$$$
>  <compound>
O=c1cc(CN(CCO)C2CC2)nc2ccccn12

>  <Percent Effect (%)>
-7.428

$$$$
>  <compound>
CC1c2ncc(Cn3cncn3)n2CCN1C(=O)N(C)C (centres undefined)

>  <Percent Effect (%)>
113.2

$$$$
>  <compound>
COc1ncccc1NC(=O)N(C1CC1)C(C)C(C)C (centres undefined)

>  <Percent Effect (%)>
116

$$$$
>  <compound>
CC1CCC(NS(=O)(=O)CC(=O)NC2(C(N)=O)CCCC2)CC1 (centres undefined)

>  <Percent Effect (%)>
92.28

$$$$
>  <compound>
Cc1nc(COCc2cnc3n2CCN(C(=O)C2CC2)C3C)cs1 (centres undefined)

>  <Percent Effect (%)>
-5.573

$$$$
>  <compound>
CCC(Nc1nc(C(C)C)nc2c1cnn2C)c1ccc(O)cc1 (centres undefined)

>  <Percent Effect (%)>
-13.26

$$$$
>  <compound>
O=C([C@@H]1C[C@@H]2CCN(C3CCOCC3)C[C@H]2O1)N1CCCC1

>  <Percent Effect (%)>
111.9

$$$$
>  <compound>
CNS(=O)(=O)CC(=O)N(C1CCCC1)C1CC1

>  <Percent Effect (%)>
-5.548

$$$$
>  <compound>
CC1CCC(N2CCC(NS(=O)(=O)CCCF)CC2)CC1 (centres undefined)

>  <Percent Effect (%)>
-1.792

$$$$
>  <compound>
CSc1ccc(-c2nc(CN3CCC(CN)C3)c(C)o2)cc1 (centres undefined)

>  <Percent Effect (%)>
-1.027

$$$$
>  <compound>
O=C(O)C(F)(F)F.O=C([C@@H]1COC[C@H]2CN(C3CCOCC3)C[C@H]21)N1CCOCC1

>  <Percent Effect (%)>
8.462

$$$$
>  <compound>
CCOC[C@]12COC[C@H]1CN(Cc1ccc3c(c1)OCO3)C2.O=C(O)C(F)(F)F

>  <Percent Effect (%)>
94.03

$$$$
>  <compound>
CCOCC1CC2(CCN(C(=O)C3CCSCC3)CC2)CO1 (centres undefined)

>  <Percent Effect (%)>
-12.12

$$$$
>  <compound>
CCNC(=O)N1C[C@@H]2OCC(=O)N(C)[C@@H]2C1

>  <Percent Effect (%)>
-7.352

$$$$
>  <compound>
CCc1noc(CSc2n[nH]c(-c3ccccn3)n2)n1

>  <Percent Effect (%)>
-7.886

$$$$
>  <compound>
Cc1occc1C(=O)N1CCn2c(Cn3cncn3)cnc2C1C (centres undefined)

>  <Percent Effect (%)>
120.5

$$$$
>  <compound>
CC1c2ncc(Cn3cncn3)n2CCN1CC1CCOCC1.O=C(O)C(F)(F)F (centres undefined)

>  <Percent Effect (%)>
55.37

$$$$
